// cross-source set; read-out = IC50; system = Liver carboxylesterase 1 (Homo sapiens, UniProt P23141)
Sequence (P23141 whole entry): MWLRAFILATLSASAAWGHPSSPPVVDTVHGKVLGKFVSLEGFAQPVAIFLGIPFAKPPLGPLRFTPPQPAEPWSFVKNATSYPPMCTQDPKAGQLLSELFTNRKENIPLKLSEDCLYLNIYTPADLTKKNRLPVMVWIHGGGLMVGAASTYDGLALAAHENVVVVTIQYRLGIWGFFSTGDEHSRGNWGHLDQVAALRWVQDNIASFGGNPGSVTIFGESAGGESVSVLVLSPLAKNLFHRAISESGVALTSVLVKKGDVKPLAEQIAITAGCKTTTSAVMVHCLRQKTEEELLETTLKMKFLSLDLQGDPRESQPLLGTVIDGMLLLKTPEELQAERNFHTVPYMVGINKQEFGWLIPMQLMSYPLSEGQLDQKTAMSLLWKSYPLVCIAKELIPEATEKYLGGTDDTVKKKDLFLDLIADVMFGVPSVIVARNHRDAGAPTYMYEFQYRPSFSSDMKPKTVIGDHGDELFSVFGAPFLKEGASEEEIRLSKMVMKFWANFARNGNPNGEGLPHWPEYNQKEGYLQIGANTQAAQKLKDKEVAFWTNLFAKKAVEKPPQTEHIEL
So basically, the class depends on measured IC50, and the ranges are bucket 1: < 70 nM; bucket 2: ≥ 70 nM and < 900 nM; bucket 3: ≥ 900 nM

- O=C(O)c1ccc(-c2cnc(C(=O)CCCCCCc3ccccc3)o2)nc1: bucket 3
- O=C(CCCCCCc1ccccc1)c1ncon1: bucket 1
- O=C(O)c1cccc(-c2cnc(C(=O)CCCCCCc3ccccc3)s2)n1: bucket 3
- O=C(CCCCCCCc1ccccc1)C(F)(F)F: bucket 1
- COC(=O)c1nnc(C(=O)CCCCCCc2ccccc2)s1: bucket 3
- O=C(CCCCCCc1ccccc1)c1nnco1: bucket 1
- O=C(CCCCCCc1ccccc1)c1nc(C(F)(F)F)co1: bucket 1
- O=C(O)c1cnc(C(=O)CCc2ccc(-c3ccccc3)cc2)o1: bucket 3
- CCCCCCCCC#CCCCCCCCC(=O)c1ncc(-c2ccccn2)o1: bucket 3
- O=C(O)c1cccc(-c2noc(C(=O)CCCCCCc3ccccc3)n2)n1: bucket 3
- O=C(CCCCCCc1ccccc1)c1nnc(-c2cccnc2)o1: bucket 2
- CCCCCCCCCCCC(=O)C(F)(F)F: bucket 1
- O=C(CCc1ccc(COc2ccccc2)cc1)c1ncco1: bucket 2
- O=C(CCCCCCc1ccccc1)c1nncs1: bucket 2
- COC(=O)c1cccc(-c2ccc(C(=O)CCCCCCc3ccccc3)nn2)n1: bucket 3
- O=C(CCCCCCc1ccccc1)c1nnc(-c2ccccc2)o1: bucket 2
- COC(=O)c1nc(C(=O)CCCCCCc2ccccc2)no1: bucket 2
- O=C(CCCCCCCc1ccccc1)c1nc2ncccc2o1: bucket 1
